Assay Target: Cytochrome P450 2C19 (Homo sapiens)
Procedure Summary: Cytochrome P450 Family 2 Subfamily C Member 19 (CYP2C19) small molecule antagonists: luciferase reporter qHTS assay (AID 1671197); note: nearly all actives have a fitted effect of over 65% in size; note: potency is the fitted concentration of half-maximal effect
Test Parameters: P450-Glo CYP2C19 enzyme, luciferin luminescence, 1 h; series mostly up to 115 µM
Inconclusive results are not listed. The source made the active and inactive calls. Calls come from the whole dose curve; as a rule, active = well fitted inhibition curve with a large enough effect in the repeat runs; inconclusive = weak or mixed curves; inactive = no such curve, though single readings can be large or run the other way.
Measured Quantity: Potency

{"columns": ["Compound", "Result"],
 "data": [
  ["CCN1CCC2(CC1)COc1cc3c(cc12)N(C(=O)c1ccc(-c2ccc(-c4nnc(C)o4)cc2C)cc1)CC3", "23.2 µM (active)"],
  ["N#Cc1c[nH]cc1-c1cccc2c1OC(F)(F)O2", "5.64 µM (active)"],
  ["c1cc[n+]2c(c1)-c1cccc[n+]1CC2", "9.77 µM (active)"],
  ["CSSC", "80.6 µM (active)"],
  ["CCCCC/C=C\\C/C=C\\C/C=C\\C/C=C\\CCCC(=O)NCC(=O)O", "inactive"],
  ["CCN(CC)CCc1c[nH]c2ccccc12", "inactive"],
  ["CCC(C)c1cccc(C(C)CC)c1O (configuration not stated)", "inactive"]
]}

Sourced from PubChem BioAssay (Tox21)
